Source: ChEMBL document CHEMBL4689842

I'd be grateful if you could share measured Total Cell Count for these entries.
- Tested on: HEK-293T
- EXPERIMENT_NOTES: Multiplex assay against HEK293T
- Assay type: toxicity, cell-based
- CONDITION_DETAILS: human, 12 h, 10 µM, compound concentration 10 uM, replicate 1
In your answer, state the number alone without any accompanying words.

**Q:** State its Total Cell Count for this compound: `C=CC(=O)Nc1cccc(Sc2nc(Nc3ccc(N4CCN(C)CC4)cc3)ncc2Cl)c1`
**A:** 476

**Q:** Provide one value: measured Total Cell Count of `Cc1ccc(C)c(Oc2ccncc2C(=O)N2CCN(C3CC3)c3ccccc32)c1`
**A:** 200

**Q:** Quote Total Cell Count reported for Cc1c[nH]c2nccc(Oc3c(F)cc(Nc4cc(Cl)nc(N)n4)cc3F)c12 [BAY-549] please.
**A:** 370

**Q:** Look up and report measured Total Cell Count for this entry: `O=c1[nH]c2ccccc2n1C1CCN(Cc2ccc(-c3[nH]c4cc5ncnc5cc4nc3-c3ccccc3)cc2)CC1`
**A:** 661

**Q:** Give the reported value of Total Cell Count for this record: Cc1cccc(CN2CCN(C(c3ccccc3)c3ccc(Cl)cc3)CC2)c1.Cl.Cl (centres undefined)
**A:** 255

**Q:** Give me measured Total Cell Count, please, for this compound: `CCc1ccc(OCc2ccccc2C(=O)Nc2ccc3nc(C)cc(N)c3c2)cc1.Cl`
**A:** 144

**Q:** Supply recorded Total Cell Count for COC(=O)C1=C(C)NC(C)=C(C(=O)OCCCN2CCC(c3ccccc3)(c3ccccc3)CC2)[C@H]1c1cccc([N+](=O)[O-])c1 [NIGULDIPINE] here.
**A:** 266

**Q:** Read the entry `CC(C)NC(=O)N1CC[C@H](NC2=Nc3cc(F)ccc3N(CC(F)F)c3ccc(Cl)cc32)C1` and write its reported Total Cell Count.
**A:** 163

**Q:** Provide only the value of recorded Total Cell Count for CNC(=O)Nc1ccc2c(c1)[C@@]1(CC2)OC(=O)N(CC(=O)N(Cc2ccc(F)cc2)[C@@H](C)C(F)(F)F)C1=O [A-486]
**A:** 510

---

- System: HEK-293T
- EXPERIMENT_NOTES: Multiplex assay against HEK293T
- Assay type: toxicity, cell-based
- CONDITION_DETAILS: human, 48 h, 10 µM, compound concentration 10 uM, replicate 1
Mark label 1 only for Population Fragmented Nuclei (%) values smaller than 20%; exact matches and larger values are label 0.

**Q:** Is 20% strictly greater than the molecule's reported Population Fragmented Nuclei (%)? molecule: `Cc1c[nH]c2nccc(Oc3c(F)cc(Nc4cc(Cl)nc(N)n4)cc3F)c12`
**A:** label 1

**Q:** Is the reported Population Fragmented Nuclei (%) for `Cl.O=C(O)c1cc(-c2ccc(C3CCNCC3)cc2)c2ccc(-c3ccc(C(F)(F)F)cc3)cc2c1` strictly below 20%?
**A:** label 0

**Q:** I'd appreciate it if you could check whether O=C(c1cc2c(cc1F)OC(c1ccc(F)cc1)(c1ccc(Cl)cc1Cl)O2)N1CCOCC1 (configuration not stated) has Population Fragmented Nuclei (%) smaller than 20%.
**A:** label 1

**Q:** Is 20% strictly greater than the molecule's reported Population Fragmented Nuclei (%)? molecule: `CC(C)c1noc(N2CCC(COc3ccc(-c4ccc(S(C)(=O)=O)cc4)nc3)CC2)n1`
**A:** label 0

**Q:** Confirm or reject: Population Fragmented Nuclei (%) of `COC(=O)C1=C(C)NC(C)=C(C(=O)OCCCN2CCC(c3ccccc3)(c3ccccc3)CC2)[C@H]1c1cccc([N+](=O)[O-])c1` lies strictly below 20%
**A:** label 0

**Q:** Given COc1cc2ncn(-c3cc(OCc4ccccc4C(F)(F)F)c(C(N)=O)s3)c2cc1OC [GW843682X] , is recorded Population Fragmented Nuclei (%) strictly lower than 20%?
**A:** label 1

**Q:** Input Cc1cccc(CN2CCN(C(c3ccccc3)c3ccc(Cl)cc3)CC2)c1.Cl.Cl (configuration not stated) ; condition: Population Fragmented Nuclei (%) strictly below 20%. Does it hold?
**A:** label 1

**Q:** Would you kindly verify if Population Fragmented Nuclei (%) of CCc1nn(CCCN2CCN(c3cccc(Cl)c3)CC2)c(=O)n1CCOc1ccccc1.Cl [NEFAZODONE HYDROCHLORIDE] is strictly less than 20%?
**A:** label 0

**Q:** Dear reviewer, please state whether `CCCSc1nc(N[C@@H]2C[C@H]2c2ccc(F)c(F)c2)c2nnn([C@@H]3C[C@H](OCCO)[C@@H](O)[C@H]3O)c2n1` has Population Fragmented Nuclei (%) strictly beneath 20%.
**A:** label 0

**Q:** Field: below-cutoff. Rule: recorded Population Fragmented Nuclei (%) strictly less than 20%. Subject: CC1=C(C(=O)Nc2cc3cn[nH]c3cc2F)C(c2ccc(C(F)(F)F)cc2)CC(=O)N1 (configuration not stated)
**A:** label 1

**Q:** Does the reported Population Fragmented Nuclei (%) of the following molecule sit strictly below 20%? `C[C@]12CC[C@@H]3c4ccc(O)cc4CC[C@H]3[C@@H]1CC[C@@H]2O`
**A:** label 1

**Q:** Find out if reported Population Fragmented Nuclei (%) for `COc1ccc(-c2ccc3ncc4c(c3c2)n(-c2ccc(N3CCNCC3)c(C(F)(F)F)c2)c(=O)n4C)cn1.O=C(O)/C=C\C(=O)O` is less than 20%
**A:** label 0

**Q:** Please determine if `O=c1cc(N2CCOCC2)oc2c(-c3cccc4c3sc3ccccc34)cccc12` is below 20% in terms of Population Fragmented Nuclei (%).
**A:** label 0

**Q:** Find out if reported Population Fragmented Nuclei (%) for `COc1ccccc1CN[C@H]1C2CCN(CC2)[C@H]1C(c1ccccc1)c1ccccc1` is less than 20%
**A:** label 1

**Q:** Population Fragmented Nuclei (%) strictly < 20% for this molecule? `CC(C)NC(=O)N1CC[C@H](NC2=Nc3cc(F)ccc3N(CC(F)F)c3ccc(Cl)cc32)C1`
**A:** label 0
